Test target: Prostaglandin G/H synthase 1 (Homo sapiens)
Run description: Inhibition of COX1 (unknown origin) assessed as PGH2 production at 35 uM by measuring […] level by enzyme immunoassay
Reported inhibition values are given for each entry in this list.
Readout: inhibition (%)

# Smiles repr, Readout, Qualifying sign, Number
rows = [
    ("COC(=O)C1=CO[C@@H](O[C@@H]2O[C@H](CO)[C@@H](O)[C@H](O)[C@H]2O)[C@H]2[C@@H]1CC[C@]2(C)O", "inhibition", "=", 42.6),
    ("OCC1=C[C@@H](O)[C@@H]2C=CO[C@@H](O[C@@H]3O[C@H](CO)[C@@H](O)[C@H](O)[C@H]3O)[C@H]12", "inhibition", "=", 48.2),
    ("COC(=O)C1=CO[C@@H](O[C@@H]2O[C@H](CO)[C@@H](O)[C@H](O)[C@H]2O)[C@@H]2[C@H](C)[C@@H](O)C[C@H]12", "inhibition", "<", 30),
    ("O=C(O)C1=CO[C@@H](O[C@@H]2O[C@H](CO)[C@@H](O)[C@H](O)[C@H]2O)[C@@H]2C(CO)=CC[C@H]12", "inhibition", "=", 54.1),
]

====

Reported inhibition values are given for each entry in this list.
Test target: Prostaglandin G/H synthase 1 (Homo sapiens)
Run description: Inhibition of COX1 (unknown origin) assessed as PGH2 production at 100 uM by measuring […] level by enzyme immunoassay
Readout: inhibition

# Smiles repr, Result
data = [
    ("COc1ccc(C(=O)O[C@@H]2C=C(CO)[C@H]3[C@H](O[C@@H]4O[C@H](CO)[C@@H](O)[C@H](O)[C@H]4O)OC=C[C@H]32)cc1", "32.8%"),
    ("OCC1=CC[C@@H]2C=CO[C@@H](O[C@@H]3O[C@H](CO)[C@@H](O)[C@H](O)[C@H]3O)[C@H]12", "47.5%"),
    ("C=C1[C@H]2[C@H](O[C@@H]3O[C@H](CO)[C@@H](O)[C@H](O)[C@H]3O)OC=C(C(=O)O)[C@H]2C[C@@H]1O", "48.2%"),
]

====

Test target: Prostaglandin G/H synthase 1 (Homo sapiens) (UniProt P23219)
Sequence (P23219 whole entry): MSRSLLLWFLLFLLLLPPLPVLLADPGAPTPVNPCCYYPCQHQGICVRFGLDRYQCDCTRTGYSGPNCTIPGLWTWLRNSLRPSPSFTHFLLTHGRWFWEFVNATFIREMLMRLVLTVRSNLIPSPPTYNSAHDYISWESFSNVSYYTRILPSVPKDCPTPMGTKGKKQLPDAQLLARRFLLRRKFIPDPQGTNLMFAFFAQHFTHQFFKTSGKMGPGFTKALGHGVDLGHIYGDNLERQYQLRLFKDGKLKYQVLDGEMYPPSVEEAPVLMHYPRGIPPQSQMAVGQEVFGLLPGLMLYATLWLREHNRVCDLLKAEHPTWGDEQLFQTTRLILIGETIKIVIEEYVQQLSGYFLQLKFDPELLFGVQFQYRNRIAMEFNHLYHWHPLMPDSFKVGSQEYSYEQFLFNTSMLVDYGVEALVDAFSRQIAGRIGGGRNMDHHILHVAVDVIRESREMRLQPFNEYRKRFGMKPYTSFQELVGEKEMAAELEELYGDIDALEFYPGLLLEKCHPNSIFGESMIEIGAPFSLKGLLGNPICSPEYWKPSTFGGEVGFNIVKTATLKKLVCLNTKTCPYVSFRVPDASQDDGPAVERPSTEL
Run description: Inhibition of COX1 (unknown origin) assessed as PGH2 production at 35 uM by measuring […] level by enzyme immunoassay
Classify as follows. Reported inhibition greater than or equal to 40%: Fulfilled. Reported inhibition below: Not fulfilled.

# Smiles repr, Assigned category
measured = [
    ("OCC1=CC[C@@H]2C=CO[C@@H](O[C@@H]3O[C@H](CO)[C@@H](O)[C@H](O)[C@H]3O)[C@H]12", "Fulfilled"),
    ("COc1ccc(C(=O)O[C@H]2[C@@H]3C=CO[C@@H](O[C@@H]4O[C@H](CO)[C@@H](O)[C@H](O)[C@H]4O)[C@@H]3[C@@]3(CO)O[C@@H]23)cc1OC", "Not fulfilled"),
    ("C[C@@H]1[C@H]2[C@H](O[C@@H]3O[C@H](CO)[C@@H](O)[C@H](O)[C@H]3O)OC=C(C(=O)O)[C@H]2C[C@@H]1O", "Not fulfilled"),
    ("COC(=O)C1=CO[C@@H](O[C@@H]2O[C@H](CO)[C@@H](O)[C@H](O)[C@H]2O)[C@@H]2[C@@H](C)[C@@H](O)C[C@H]12", "Fulfilled"),
    ("C[C@@H]1CC[C@]2(O)C(C=O)=CO[C@@H](O[C@@H]3O[C@H](CO)[C@@H](O)[C@H](O)[C@H]3O)[C@H]12", "Not fulfilled"),
]

====

Test target: Prostaglandin G/H synthase 1 (Homo sapiens) (UniProt P23219)
Run description: Inhibition of COX1 (unknown origin) assessed as PGH2 production at 35 uM by measuring […] level by enzyme immunoassay
Reported inhibition values are given for each entry in this list.

# Smiles repr, inhibition [%]
rows = [
    ("OC[C@H]1O[C@@H](O[C@@H]2OC=C[C@H]3[C@H](O)[C@@H]4O[C@]4(CO)[C@@H]23)[C@H](O)[C@@H](O)[C@@H]1O", 47.6),
    ("COC(=O)C1=CO[C@@H](O[C@@H]2O[C@H](CO)[C@@H](O)[C@H](O)[C@H]2O)[C@@H]2[C@H](C)C[C@@H](O)[C@]12O", 33.4),
    ("C[C@@H]1CC[C@@H]2C(C=O)=CO[C@@H](O[C@@H]3O[C@H](CO)[C@@H](O)[C@H](O)[C@H]3O)[C@H]12", 48),
    ("CC(=O)O[C@]1(C)C[C@@H](O)[C@]2(O)C=CO[C@@H](O[C@@H]3O[C@H](CO)[C@@H](O)[C@H](O)[C@H]3O)[C@@H]21", 38.6),
    ("COc1ccc(C(=O)O[C@@H]2C=C(CO)[C@H]3[C@H](O[C@@H]4O[C@H](CO)[C@@H](O)[C@H](O)[C@H]4O)OC=C[C@H]32)cc1", 34.3),
    ("C=C1[C@H]2[C@H](O[C@@H]3O[C@H](CO)[C@@H](O)[C@H](O)[C@H]3O)OC=C(C(=O)O)[C@H]2C[C@@H]1O", 51.4),
]

====

Test target: Prostaglandin G/H synthase 1 (Homo sapiens) (UniProt P23219)
Run description: Inhibition of COX1 (unknown origin) assessed as PGH2 production at 100 uM by measuring […] level by enzyme immunoassay

# Smiles repr, Readout units, Qualifying sign, inhibition
records = [
    ("O=C(O)C1=CO[C@@H](O[C@@H]2O[C@H](CO)[C@@H](O)[C@H](O)[C@H]2O)[C@@H]2C(CO)=CC[C@H]12", "%", "=", 55.3),
    ("OCC1=C[C@@H](O)[C@@H]2C=CO[C@@H](O[C@@H]3O[C@H](CO)[C@@H](O)[C@H](O)[C@H]3O)[C@H]12", "%", "=", 50.2),
    ("C[C@@H]1[C@H]2[C@H](O[C@@H]3O[C@H](CO)[C@@H](O)[C@H](O)[C@H]3O)OC=C(C(=O)O)[C@H]2C[C@@H]1O", "%", "=", 35.4),
    ("COc1ccc(C(=O)O[C@H]2[C@@H]3C=CO[C@@H](O[C@@H]4O[C@H](CO)[C@@H](O)[C@H](O)[C@H]4O)[C@@H]3[C@@]3(CO)O[C@@H]23)cc1OC", "%", "=", 39.1),
    ("C[C@@H]1CC[C@]2(O)C(C=O)=CO[C@@H](O[C@@H]3O[C@H](CO)[C@@H](O)[C@H](O)[C@H]3O)[C@H]12", "%", "=", 39.9),
    ("C[C@@H]1CC[C@@H]2C(C=O)=CO[C@@H](O[C@@H]3O[C@H](CO)[C@@H](O)[C@H](O)[C@H]3O)[C@H]12", "%", "=", 73.3),
    ("OC[C@H]1O[C@@H](O[C@@H]2OC=C[C@H]3[C@H](O)[C@@H]4O[C@]4(CO)[C@@H]23)[C@H](O)[C@@H](O)[C@@H]1O", "%", "=", 63.7),
    ("COC(=O)C1=CO[C@@H](O[C@@H]2O[C@H](CO)[C@@H](O)[C@H](O)[C@H]2O)[C@@H]2[C@@H](C)[C@@H](O)C[C@H]12", "%", "=", 50.5),
    ("CC(=O)O[C@]1(C)C[C@@H](O)[C@]2(O)C=CO[C@@H](O[C@@H]3O[C@H](CO)[C@@H](O)[C@H](O)[C@H]3O)[C@@H]21", "%", "=", 39.1),
    ("COC(=O)C1=CO[C@@H](O[C@@H]2O[C@H](CO)[C@@H](O)[C@H](O)[C@H]2O)[C@H]2[C@@H]1CC[C@]2(C)O", "%", "=", 42.7),
    ("COC(=O)C1=CO[C@@H](O[C@@H]2O[C@H](CO)[C@@H](O)[C@H](O)[C@H]2O)[C@@H]2[C@H](C)[C@@H](O)C[C@H]12", "%", "<", 30),
    ("O=C(OCC1=C[C@@H](O)[C@@H]2C=CO[C@@H](O[C@@H]3O[C@H](CO)[C@@H](O)[C@H](O)[C@H]3O)[C@H]12)c1ccc(O)cc1", "%", "=", 43.4),
    ("COC(=O)C1=CO[C@@H](O[C@@H]2O[C@H](CO)[C@@H](O)[C@H](O)[C@H]2O)[C@@H]2[C@H](C)C[C@@H](O)[C@]12O", "%", "=", 51.7),
]

Measured values drawn from ChEMBL document CHEMBL3621111 for this set.
